Task for the reader: assign each of the following compounds its reported MIC.
- System: Cryptococcus neoformans
- Measurement notes: Antifungal activity against Cryptococcus neoformans ATCC 36556 by standard microdilution method
- Assay type: functional
Give a bare numeral; the unit µg/mL is implied.

Requested read-out: MIC. Entry: `OCCCCCCCCCCCCCCCCO`
62.5

What do we get for `C[N+](C)(C)CCOP(=O)([O-])OCCCCCCCCCCCCOP(=O)([O-])OCC[N+](C)(C)C` ?
250

Now this one: `O=P(OCCCCCCCCCCCCCCCCCCCCCCOP(=O)(Oc1ccccc1)Oc1ccccc1)(Oc1ccccc1)Oc1ccccc1`
125

* * *

- Test system: Cryptococcus neoformans
- Measurement notes: Antifungal activity against Cryptococcus neoformans 96-69 by standard microdilution method
- Type: functional
Metric name: MIC (µg/mL)
Reply numerically in µg/mL, unit not repeated.

Need MIC, item `O=P(OCCCCCCCCCCCCCCCCOP(=O)(Oc1ccccc1)Oc1ccccc1)(Oc1ccccc1)Oc1ccccc1`
125

Another: `CCCCCCCCCCCCCCCCOP(=O)(O)OCC[N+](C)(C)C.[Cl-]`
0.5

Please answer likewise for `CCCCCCCCCCCCCCCCO`
125

Then this molecule: `C[N+](C)(C)CCOP(=O)([O-])OCCCCCCCCCCCCCCCCCCCCCCCCOP(=O)([O-])OCC[N+](C)(C)C`
7.8

Same lookup for CCCCCCCCCCCCCCCCOP(=O)(O)O [HEXADECYL DIHYDROGEN PHOSPHATE] , please.
62.5

Also `O=P(O)(O)OCCCCCCCCCCCCCCCCCCCCCCOP(=O)(O)O` , if possible.
125

Moving on to `O=P(O)(O)OCCCCCCCCCCCCCCCCOP(=O)(O)O`
125

Another: `C[N+](C)(C)CCOP(=O)([O-])OCCCCCCCCCCCCCCCCOP(=O)([O-])OCC[N+](C)(C)C`
125
